- Study target: T1, DFNB31_3, Q9P202
- T1 sequence (Q9P202 811-907, limits assumed, looked up): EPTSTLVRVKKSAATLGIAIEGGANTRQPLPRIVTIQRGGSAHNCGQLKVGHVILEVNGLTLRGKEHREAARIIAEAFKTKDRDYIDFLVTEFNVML
- Assay summary: holdup assay
- Design: key: below the threshold = too weak to quantify, mostly under pKd 3.1 to 4
- Condition label: plain residues with an end cap or a label only (N-terminal biotin on a linker: ado-ado)
Assign class by pKd: not lower than 4 means YES; lower than 4 means NO.

Here are 3 binders together with their reported answers.
binder="NKSEPFLTWL [WWTR1, Q9GZV5]" category=YES
binder="KPDKQEEFYA [SDC3, O75056]" category=NO
binder="LLQEEWETVM [PTH1R, Q03431]" category=YES

(Q) Does the reported pKd for AHGSTRDQSI [KCNB1, Q14721] fall at or above the 4 mark?
(A) NO

(Q) Form field: pKd at least 4? Entry: PEKVSNTTVV [IGSF5, Q9NSI5]
(A) NO
